- ASSAY TARGET: recombinant human KLK5 (human) (UniProt Q9Y337)
- Sequence (Q9Y337 67-293): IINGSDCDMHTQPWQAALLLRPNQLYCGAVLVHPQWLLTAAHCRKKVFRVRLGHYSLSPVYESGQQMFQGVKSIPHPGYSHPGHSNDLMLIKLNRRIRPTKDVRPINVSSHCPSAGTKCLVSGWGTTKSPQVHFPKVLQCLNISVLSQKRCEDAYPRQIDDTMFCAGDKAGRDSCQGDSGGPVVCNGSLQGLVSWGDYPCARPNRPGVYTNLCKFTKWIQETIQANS
- EXPERIMENT SUMMARY: pro-KLK1 LC/MS assay, 0.5 nM KLK5, 300 nM pro-KLK1; box column 1 of 3; no unit printed, nM per text
MEASURED PARAMETER: IC50 (nM)

BINDER: 2B11 (antibody, V domains shown) VH: QSVKESEGGLFKPTDTLTLTCTVSGFSLINYGVSWVRQAPGKGLEWIGYIGSAGSTYYATWAKSRATITRNTNLNTVTLKMTSLTAADTATYFCARAAYSAGSADAEDIWGPGTLVTVSS VL: AYYMTQTPASVEAAVGGTVTIKCQASQSISNYVAWYQQKPGQPPKLLIYRASTLASGVSSRFSGSGSGTEFTLTISDLECADAATYYCHQGYSSSNVDNIFGGGTEVVVK
RESULT UNIT: nM
NUMERIC READOUT: 0.369

BINDER: 10C5 (antibody, V domains shown) VH: QSLEESGGGLVKPTDTLTLTCTVSGFSLSSYGVTWVRQAPGRGLEWIGYITSNYGVSYYASWAKSRSTITRNTNLNTVTLKMTSLTAADTATYFCARENPDYGYAYDAWGPGTLVTVSV VL: AYDMTQTPASLEAAVGGTVTINCQASESISNELSWYQQKPGQPPDLLIYYASTLASGVPSRFKGSGSGTEFTLTISDLECADAATYYCAQGFGSSGVENVFGGGTEVVVK
RESULT UNIT: nM
NUMERIC READOUT: 0.0399

BINDER: 9H3 (antibody, V domains shown) VH: QSVKESEGGLFKPTDTLTLTCTVSGFSLSGYGVSWVRQAPGKGLEYIGFIGSGGSAYYASWAKSRSTITRNTNLNTVTLKMTRLTAADTATYFCARDNVGGDMSLDIWGPGTLVTVSS VL: DIVMTQTPASVSEPVGGTVTIKCQASQNINNYLSWYQQKPGQPPKQLIYAASTLASGVPSRFKGSGSGTQFTLTISDLECADAATYYCHQDYTSNNVDNTFGGGTEVVVK
RESULT UNIT: nM
NUMERIC READOUT: 0.0728

BINDER: 9B6 (antibody, V domains shown) VH: QSVKESEGGLFKPTDNLTLTCTVSGFSLSNYGVTWVRQAPGNGLEYIGFIGSGGSAYYASWAKSRSTITRNTNLNTVTLKMTSLTAADTATYFCARDDVGGGKSLDIWGPGTLVTVSS VL: NIVMTQTPASVEVAVGGTVVIKCQASQNIGDYLSWYQQKPGQRPKLLIYSASTLASGVPSRFKGSGSGTQFTLTISDLECADAATYYCHQDYTSNDVENTFGGGTEVVVK
RESULT UNIT: nM
NUMERIC READOUT: 0.0659

BINDER: 10C8 (antibody, V domains shown) VH: QSVKESEGGLFKPTDNLTLTCTVSGFSLSSYGVSWVRQAPGNGLEYIGFIGSGGFAYYASWAKSRSTITRNTNLNTVTLKMTSLTAADTATYFCARDDVGGGRSLDIWGPGTVVTVSS VL: NIVMTQTPASVEVAMGGTVIIKCQASQSISTYLSWYQQKPGQPPKLLIYSASTLASGVSSRFEGSGSGTQFTLTISGVQCADAATYYCHQDYTSNNVDNTFGGGTEVVVK
RESULT UNIT: nM
NUMERIC READOUT: 0.0587
